# MEASUREMENT_PROTOCOL: Single dose PK in healthy subjects (Cohorts 1, 2, S1 and S2), plasma
# Format: in vivo, human
# EXPERIMENTAL_CONDITIONS: human, plasma, iv, 14 mg, 14 mg single IV infusion, healthy subjects; read-out: Vss Median
MEASURED_ENDPOINT: Vd (L)
Answer with a number only, understood to be in L.

## Input Fill in reported Vd for this entry: COC(=O)N1CCC[C@H](NS(C)(=O)=O)[C@@H]1CO[C@H]1CC[C@@H](c2ccccc2)CC1 [Compound A]
## Output 72.7

====

# MEASUREMENT_PROTOCOL: Single dose PK in healthy subjects (Cohorts 1, 2, S1 and S2), plasma
# Type: in vivo, human
# EXPERIMENTAL_CONDITIONS: human, plasma, intravenous, 240 mg; 1.5 hr; read-out: Plasma concentration, Minimum
MEASURED_ENDPOINT: concentration at 1.5 hr (µg/mL)
Answer with a number only, understood to be in µg/mL.

## Input Fill in reported concentration at 1.5 hr for this entry: `COC(=O)N1CCC[C@H](NS(C)(=O)=O)[C@@H]1CO[C@H]1CC[C@@H](c2ccccc2)CC1`
## Output 0.315

====

# MEASUREMENT_PROTOCOL: Single dose PK in healthy subjects (Cohorts 1, 2, S1 and S2), plasma
# Assay type: in vivo, human
# EXPERIMENTAL_CONDITIONS: human, plasma, intravenous, 7 mg; 2 hr; read-out: Plasma concentration, Q3
MEASURED_ENDPOINT: concentration at 2 h (ng/mL)
Answer with a number only, understood to be in ng/mL.

## Input Fill in reported concentration at 2 h for this entry: COC(=O)N1CCC[C@H](NS(C)(=O)=O)[C@@H]1CO[C@H]1CC[C@@H](c2ccccc2)CC1 [Compound A]
## Output 16.5

====

# MEASUREMENT_PROTOCOL: Single dose PK in healthy subjects (Cohorts 1, 2, S1 and S2), plasma
# Format: in vivo, human
# EXPERIMENTAL_CONDITIONS: human, plasma, iv, 14 mg, 14 mg single IV infusion, healthy subjects; read-out: AUCinf Mean
# Excerpt: […]
MEASURED_ENDPOINT: AUC(0-inf) (ng·h/mL)
Answer with a number only, understood to be in ng·h/mL.

## Input Fill in reported AUC(0-inf) for this entry: `COC(=O)N1CCC[C@H](NS(C)(=O)=O)[C@@H]1CO[C@H]1CC[C@@H](c2ccccc2)CC1`
## Output 331

====

# MEASUREMENT_PROTOCOL: Single dose PK in healthy subjects (Cohorts 1, 2, S1 and S2), plasma
# Format: in vivo, human
# EXPERIMENTAL_CONDITIONS: human, plasma, iv, 14 mg, 14 mg single IV infusion, healthy subjects; read-out: CL Median (converted)
MEASURED_ENDPOINT: clearance (mL/min)
Answer with a number only, understood to be in mL/min.

## Input Fill in reported clearance for this entry: COC(=O)N1CCC[C@H](NS(C)(=O)=O)[C@@H]1CO[C@H]1CC[C@@H](c2ccccc2)CC1 [Compound A]
## Output 723

====

# MEASUREMENT_PROTOCOL: Single dose PK in healthy subjects (Cohorts 1, 2, S1 and S2), plasma
# Assay type: in vivo, human
# EXPERIMENTAL_CONDITIONS: human, plasma, iv, 14 mg, 14 mg single IV infusion, healthy subjects; read-out: Vz Median
MEASURED_ENDPOINT: Vd (L)
Answer with a number only, understood to be in L.

## Input Fill in reported Vd for this entry: `COC(=O)N1CCC[C@H](NS(C)(=O)=O)[C@@H]1CO[C@H]1CC[C@@H](c2ccccc2)CC1`
## Output 253

====

# MEASUREMENT_PROTOCOL: Single dose PK in healthy subjects (Cohorts 1, 2, S1 and S2), plasma
# Assay type: in vivo, human
# EXPERIMENTAL_CONDITIONS: human, plasma, intravenous, 180 mg; 1 hr; read-out: Plasma concentration, Minimum
MEASURED_ENDPOINT: concentration at 1 hr (ng/mL)
Answer with a number only, understood to be in ng/mL.

## Input Fill in reported concentration at 1 hr for this entry: `COC(=O)N1CCC[C@H](NS(C)(=O)=O)[C@@H]1CO[C@H]1CC[C@@H](c2ccccc2)CC1`
## Output 173

====

# MEASUREMENT_PROTOCOL: Single dose PK in patients with narcolepsy (Cohorts 5, 6 and 7), plasma
# Type: in vivo, human
# EXPERIMENTAL_CONDITIONS: human, plasma, intravenous, 5 mg, Cmpd A 5 mg; Geo Mean; Cohort 5, 6, 7
MEASURED_ENDPOINT: AUC(0-inf) (ng·h/mL)
Answer with a number only, understood to be in ng·h/mL.

## Input Fill in reported AUC(0-inf) for this entry: `COC(=O)N1CCC[C@H](NS(C)(=O)=O)[C@@H]1CO[C@H]1CC[C@@H](c2ccccc2)CC1`
## Output 88.5

====

# MEASUREMENT_PROTOCOL: Single dose PK in healthy subjects (Cohorts 1, 2, S1 and S2), plasma
# Format: in vivo, human
# EXPERIMENTAL_CONDITIONS: human, plasma, intravenous, 134.4 mg; 4 hr; read-out: Plasma concentration, Minimum
MEASURED_ENDPOINT: concentration at 4 h (µg/mL)
Answer with a number only, understood to be in µg/mL.

## Input Fill in reported concentration at 4 h for this entry: `COC(=O)N1CCC[C@H](NS(C)(=O)=O)[C@@H]1CO[C@H]1CC[C@@H](c2ccccc2)CC1`
## Output 0.214

====

# MEASUREMENT_PROTOCOL: Single dose PK in patients with narcolepsy (Cohorts 5, 6 and 7), plasma
# Format: in vivo, human
# EXPERIMENTAL_CONDITIONS: human, plasma, intravenous, 11.2 mg, Cmpd A 11.2 mg; Geo Mean; Cohort 5, 6, 7
MEASURED_ENDPOINT: AUC(0-t) (ng·h/mL)
Answer with a number only, understood to be in ng·h/mL.

## Input Fill in reported AUC(0-t) for this entry: COC(=O)N1CCC[C@H](NS(C)(=O)=O)[C@@H]1CO[C@H]1CC[C@@H](c2ccccc2)CC1 [Compound A]
## Output 199

====

# MEASUREMENT_PROTOCOL: Multiple-dose PK of intravenous Compound A in patients with NT1 (Cohorts B1, B2), plasma
# Assay type: in vivo, human
# EXPERIMENTAL_CONDITIONS: human, plasma, intravenous, 11 mg; Day 7; read-out: AUCtau, Geo Mean
MEASURED_ENDPOINT: AUC

## Input Fill in reported AUC for this entry: COC(=O)N1CCC[C@H](NS(C)(=O)=O)[C@@H]1CO[C@H]1CC[C@@H](c2ccccc2)CC1 [Compound A]
## Output 0.183 µg·h/mL

====

# MEASUREMENT_PROTOCOL: Single dose PK in healthy subjects (Cohorts 1, 2, S1 and S2), plasma
# Type: in vivo, human
# EXPERIMENTAL_CONDITIONS: human, plasma, intravenous, 7 mg; 6 hr; read-out: Plasma concentration, Median
MEASURED_ENDPOINT: concentration at 6 h (ng/mL)
Answer with a number only, understood to be in ng/mL.

## Input Fill in reported concentration at 6 h for this entry: `COC(=O)N1CCC[C@H](NS(C)(=O)=O)[C@@H]1CO[C@H]1CC[C@@H](c2ccccc2)CC1`
## Output 12.4

====

# MEASUREMENT_PROTOCOL: Single dose PK in healthy subjects (Cohorts 1, 2, S1 and S2), plasma
# Format: in vivo, human
# EXPERIMENTAL_CONDITIONS: human, plasma, intravenous, 7 mg; 1 hr After End of Infusion; read-out: Plasma concentration, Mean
MEASURED_ENDPOINT: concentration at 1 h after end of infusion (ng/mL)
Answer with a number only, understood to be in ng/mL.

## Input Fill in reported concentration at 1 h after end of infusion for this entry: `COC(=O)N1CCC[C@H](NS(C)(=O)=O)[C@@H]1CO[C@H]1CC[C@@H](c2ccccc2)CC1`
## Output 4.91

====

# MEASUREMENT_PROTOCOL: Single dose PK in healthy subjects (Cohorts 1, 2, S1 and S2), plasma
# Format: in vivo, human
# EXPERIMENTAL_CONDITIONS: human, plasma, intravenous, 7 mg; 1.5 hr; read-out: Plasma concentration, Minimum
MEASURED_ENDPOINT: concentration at 1.5 h (ng/mL)
Answer with a number only, understood to be in ng/mL.

## Input Fill in reported concentration at 1.5 h for this entry: `COC(=O)N1CCC[C@H](NS(C)(=O)=O)[C@@H]1CO[C@H]1CC[C@@H](c2ccccc2)CC1`
## Output 8.96
